Measured GI50 accompanies every entry in the list below.
- Test system: HOP-92
- PROTOCOL_TEXT: NCI tumour cell line growth inhibition, 48 h
Calls of active or inactive are those of the source. Cut-off read from the data, not from the text of the source: active = GI50 up to about 1.1 µM and inactive = higher.

Some solved entries appear below for comparison.
{"COMPOUND": "COc1cccc(CCNC(=O)Cc2ccccc2CCO)c1", "ASSAYED_SYSTEM": "HOP-92", "GI50": "> 100 µM (inactive)"}
{"COMPOUND": "COc1cc(/C=C/c2nc(NC(=S)Nc3ccccc3)nnc2C)cc(OC)c1OC", "ASSAYED_SYSTEM": "HOP-92", "GI50": "53.7 µM (inactive)"}
{"COMPOUND": "Cc1ccc(S(=O)(=O)OCCN(CCOS(=O)(=O)c2ccc(C)cc2)c2ccc(C=O)cc2)cc1", "ASSAYED_SYSTEM": "HOP-92", "GI50": "26.1 µM (inactive)"}
{"COMPOUND": "CC(=O)NC(Cc1ccc(O)cc1)C(=O)O (stereo not given)", "ASSAYED_SYSTEM": "HOP-92", "GI50": "> 100 µM (inactive)"}
{"COMPOUND": "Cc1ccc(S(=O)(=O)OC2CS[S+]([O-])CC2OS(=O)(=O)c2ccc(C)cc2)cc1 (stereo not given)", "ASSAYED_SYSTEM": "HOP-92", "GI50": "13 µM (inactive)"}

Summary: CCOC1OC(=O)c2cc3ccc4c(c3c(-c3ccc5c(c3)OCO5)c21)OCO4 (stereo not given) , HOP-92, GI50 = 96.8 µM (inactive)

Summary: CSC1=NC(=O)CCN1C1OCC(OC(C)=O)C(OC(C)=O)C1OC(C)=O (stereo not given) , HOP-92, GI50 = 14.8 µM (inactive)

Summary: Cc1ccc(S(=O)(=O)NC(CCC(=O)NNc2ccccc2)C(=O)NNc2ccccc2)cc1 (stereo not given) , HOP-92, GI50 = > 100 µM (inactive)

Summary: COC(=O)C(Cc1ccc2c(c1)OCO2)(NC(=O)c1ccccc1)P(=O)(OC)OC (stereo not given) , HOP-92, GI50 = > 100 µM (inactive)

Summary: Clc1ccc(/C=N/c2ccc3c(c2)Cc2ccccc2-3)c(Cl)c1 , HOP-92, GI50 = > 100 µM (inactive)

###

- System: RPMI-8226
- PROTOCOL_TEXT: NCI tumour cell line growth inhibition, 48 h
Active and inactive are the calls of the source. No stated cut-off is given here; in the data, active = GI50 up to about 1.1 µM and inactive = higher.
READOUT_LABEL: GI50

{"COMPOUND": "O=[N+]([O-])c1cccc(/C=N/C23CC4CC(CC(C4)C2)C3)c1", "ASSAYED_SYSTEM": "RPMI-8226", "MEASURED": "> 10 µM (inactive)"}
{"COMPOUND": "CC1=NN(C(=O)CC(=O)Nc2ccc(C)cc2)C(=O)C1/N=N\\c1ccc(S(=O)(=O)c2ccc(/N=N/C3C(=O)N(C(=O)CC(=O)Nc4ccc(C)cc4)N=C3C)cc2)cc1 (stereo not given)", "ASSAYED_SYSTEM": "RPMI-8226", "MEASURED": "82.4 µM (inactive)"}
{"COMPOUND": "Cc1ccc(S(=O)(=O)NC(CCC(=O)NNc2ccccc2)C(=O)NNc2ccccc2)cc1 (stereo not given)", "ASSAYED_SYSTEM": "RPMI-8226", "MEASURED": "5.58 µM (inactive)"}

Summary: COc1ccc(C(c2ccccc2C(=O)O)c2ccc(OC)c3ccccc23)c2ccccc12 , RPMI-8226, GI50 = 3.61 µM (inactive)

Summary: CSC(=O)/C=C1\SS/C(=C\C(=O)SC)S1 , RPMI-8226, GI50 = 1.55 µM (inactive)

Summary: CCc1cccc(C)c1NC(=O)CCc1n[nH]c(=S)o1 , RPMI-8226, GI50 = 21.6 µM (inactive)

Summary: Cn1c(=O)oc2cc(C3CCC(=O)N3Cc3csc(-c4ccccc4)n3)ccc21 (stereo not given) , RPMI-8226, GI50 = > 100 µM (inactive)

Summary: Cc1nnc(N/N=C2/C(=O)Nc3ccccc32)nc1O , RPMI-8226, GI50 = > 100 µM (inactive)

Summary: O=[N+]([O-])c1ccc2oc(=N/c3ccccc3)/c(=N\c3ccccc3)[nH]c2c1 , RPMI-8226, GI50 = > 100 µM (inactive)

Summary: Nc1nc(Cl)nc2c1ncn2C1CC(O)C(CO)O1 (stereo not given) , RPMI-8226, GI50 = 54.2 µM (inactive)

Summary: Cc1ccc(O)c(C(c2ccc(C(c3cc(C)ccc3O)c3cc(C)ccc3O)cc2)c2cc(C)ccc2O)c1 , RPMI-8226, GI50 = 1.56 µM (inactive)

Summary: O=C1C2CC(Cl)C(SSC3CC4C(=O)N(SC(Cl)(Cl)C(Cl)Cl)C(=O)C4CC3Cl)CC2C(=O)N1SC(Cl)(Cl)C(Cl)Cl (stereo not given) , RPMI-8226, GI50 = 1.81 µM (inactive)

Summary: Clc1ccc(-c2ccc(-c3nnc(CCc4nnc(-c5ccc(-c6ccc(Cl)cc6)o5)o4)o3)o2)cc1 , RPMI-8226, GI50 = 34 µM (inactive)
